# Test system: P. falciparum stage V female gametocytes (female gamete formation)
# METHOD: P. falciparum dual gamete formation assay (Pf DGFA), female readout (Pfs25 expression), 48 h carry-over format
# Type: cell-based, Plasmodium falciparum NF54
# ASSAY_CONTEXT: Plasmodium falciparum, 48h preincubation/carry-over; read-out: Pf DGFA Female IC50
QUANTITY: IC50

Identify measured IC50 corresponding to c1cnnc(N2CCCC2CNc2ncnc3sccc23)c1 (stereo not shown) [DDD01299704]
> 12.5 µM

Identify measured IC50 corresponding to COc1cccc(-n2ccc3nc(N4CCCC4)ncc3c2=O)c1 [DDD01034957]
> 12.5 µM

Identify measured IC50 corresponding to CC(c1cccs1)N(C)Cc1cnc(-c2ccccn2)nc1 (stereo not shown) [DDD01246628]
> 25 µM

Identify measured IC50 corresponding to CN(Cc1cccc(F)c1)C(=O)CS(=O)(=O)Cc1c(Cl)cccc1Cl [DDD01077188]
> 12.5 µM

Identify measured IC50 corresponding to O=S(=O)(NCC1(O)CCOc2ccccc21)c1ccccc1F (stereo not shown) [DDD01028073]
> 12.5 µM

Identify measured IC50 corresponding to CCn1ncc(Br)c1CN(C)S(=O)(=O)c1ccc(C)cc1 [DDD01259521]
> 12.5 µM

Identify measured IC50 corresponding to O=S(=O)(NCC1(O)CCOc2ccccc21)c1ccc(Cl)s1 (stereo not shown) [DDD01028075]
> 12.5 µM

Identify measured IC50 corresponding to O=S(=O)(NCC1(O)CCOc2ccccc21)c1ccccc1Br (stereo not shown) [DDD01028076]
> 12.5 µM

Identify measured IC50 corresponding to O=S(=O)(NCC1(O)CCOc2ccccc21)c1cccs1 (stereo not shown) [DDD01035879]
> 12.5 µM

Identify measured IC50 corresponding to OC1(CN2CCC(Oc3cccc(C(F)(F)F)c3)CC2)CCNC1 (stereo not shown) [DDD01245291]
4.13 µM
